biological target: Human immunodeficiency virus type 1 integrase (Human immunodeficiency virus 1); experiment: Inhibition of HIV1 integrase 3'-end processing activity
Sequence (Q7ZJM1 whole entry): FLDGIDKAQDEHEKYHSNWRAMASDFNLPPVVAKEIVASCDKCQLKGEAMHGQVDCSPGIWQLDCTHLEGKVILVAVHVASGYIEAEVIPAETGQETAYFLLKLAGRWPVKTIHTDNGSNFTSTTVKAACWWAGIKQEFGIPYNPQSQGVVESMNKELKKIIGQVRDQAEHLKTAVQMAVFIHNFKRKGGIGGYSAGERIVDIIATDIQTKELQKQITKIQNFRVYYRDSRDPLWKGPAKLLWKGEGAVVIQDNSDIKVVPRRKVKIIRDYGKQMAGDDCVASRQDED
pIC50: −log10 of the molar value.
Documented pIC50 across a set of molecules
Assay endpoint: pIC50

{"columns": ["Molecule", "Assay endpoint", "Censoring operator", "Readout number"],
 "data": [
  ["COc1ccc(C(=O)C2=C(O)C(=O)N(CCc3ccccc3)C2c2ccc(Br)cc2)cc1OC (centres undefined)", "pIC50", "=", 4.22],
  ["CC(C)(C)c1ccc(C2C(C(=O)c3ccc(F)cc3)=C(O)C(=O)N2c2nncs2)cc1 (centres undefined)", "pIC50", "=", 4.19],
  ["COc1ccc(C2C(C(=O)c3ccc(Br)cc3)=C(O)C(=O)N2c2cc(C(C)(C)C)on2)cc1OC (centres undefined)", "pIC50", "=", 4.35],
  ["CCOc1ccc(C(=O)C2=C(O)C(=O)N(c3nccs3)C2c2ccc(O)c(OC)c2)cc1 (centres undefined)", "pIC50", "=", 4.24],
  ["Cc1ccc(C2C(C(=O)c3ccc(Cl)cc3)=C(O)C(=O)N2CC(=O)O)cc1 (centres undefined)", "pIC50", "=", 4.08],
  ["Cc1ccc(C(=O)C2=C(O)C(=O)N(c3ncc(S(=O)(=O)c4ccc([N+](=O)[O-])cc4)s3)C2c2cccc(Cl)c2)cc1 (centres undefined)", "pIC50", "=", 4.57],
  ["Cc1ccc(C(=O)C2=C(O)C(=O)N(c3nccs3)C2c2ccc(F)cc2)cc1 (centres undefined)", "pIC50", "<", 4.00],
  ["CCOc1ccc(C(=O)C2=C(O)C(=O)N(c3nnc(C)s3)C2c2ccc(F)cc2)cc1 (centres undefined)", "pIC50", "<", 4.00],
  ["COc1ccc(OC)c(C(=O)C2=C(O)C(=O)N(CCCCCC(=O)O)C2c2ccc(Cl)cc2)c1 (centres undefined)", "pIC50", "=", 4.06]
]}

All values here come from ChEMBL document CHEMBL1137564.
